Entries and their measured Time follow.
tested on: Rattus norvegicus; assay: Induction of stereotyped gnawling behavior in rat assessed as time duration at 100 umol/kg, ip relative to control; assay type: functional
Measurement label: Time (h)

[
  {
    "Molecule": "CC(C)C(=O)Oc1ccc2c(c1OC(=O)C(C)C)-c1cccc3c1[C@@H](C2)N(C)CC3.Cl",
    "Measurement label": "Time",
    "Numeric readout": 3.3
  },
  {
    "Molecule": "CCC(=O)Oc1ccc2c(c1OC(=O)CC)-c1cccc3c1[C@@H](C2)N(C)CC3.Cl",
    "Measurement label": "Time",
    "Numeric readout": 1.9
  },
  {
    "Molecule": "CN1CCc2cccc3c2[C@H]1Cc1ccc(OC(=O)C(C)(C)C)c(OC(=O)C(C)(C)C)c1-3.Cl",
    "Measurement label": "Time",
    "Numeric readout": 5.1
  },
  {
    "Molecule": "CC(=O)Oc1ccc2c(c1OC(C)=O)-c1cccc3c1[C@@H](C2)N(C)CC3",
    "Measurement label": "Time",
    "Numeric readout": 2.3
  },
  {
    "Molecule": "CN1CCc2cccc3c2[C@H]1Cc1ccc(OC(=O)c2ccccc2)c(OC(=O)c2ccccc2)c1-3",
    "Measurement label": "Time",
    "Numeric readout": 6.3
  },
  {
    "Molecule": "CN1CCc2cccc3c2[C@H]1Cc1ccc(O)c(O)c1-3.CN1CCc2cccc3c2[C@H]1Cc1ccc(O)c(O)c1-3.Cl.Cl.O [APOMORPHINE HYDROCHLORIDE]",
    "Measurement label": "Time",
    "Numeric readout": 1.9
  }
]
